# Target Entity: T1, Human NKp46 antigen for immunization, screening, and testing (Kactus, NKP-HM146) (human, UniProt O76036 22-255)
# T1 construct: Bought protein; also called human NKp46 antigen protein; human NKp46 protein
# T1 sequence (O76036 other isoform, or with tags, fused parts or gaps limits assumed): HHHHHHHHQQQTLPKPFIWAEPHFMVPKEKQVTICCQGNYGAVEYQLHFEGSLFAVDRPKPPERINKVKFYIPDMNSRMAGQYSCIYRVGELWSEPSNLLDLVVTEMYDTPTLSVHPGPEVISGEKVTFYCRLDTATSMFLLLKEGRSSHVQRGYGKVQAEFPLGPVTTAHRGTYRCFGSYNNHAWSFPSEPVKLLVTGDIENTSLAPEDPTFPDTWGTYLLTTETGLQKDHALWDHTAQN
# Test Description: SPR (Biacore 8K), antibody captured on anti-human Fc, NKp46 as analyte, 1:1 fit
# Method: Human NKp46 was diluted in two-fold to a serial concentration (400 nM-3.125 nM), then combined for 90 s at a flow rate of 50 μL/min, and dissociated for 500 s. At the end of each round of experiments, 3 M MgCl₂ solution was used to rinse at a flow rate of 30 μL/min for 30 s, and the captured antibody was removed along with the antigen to complete the regeneration of the chip. […]
Recorded Kd values for a group of binders are listed next.
Hi, when you answer, please include the unit after the number. Thanks!

Binder: H2-PA27 humanized antibody (antibody, human IgG1, V domains shown, not shown: constant region of human IgG1) VH: QVQLVESGGGVVQPGRSLRLSCAASGRTESWYRMGWFRQAPGKGLEVVARISGDTNIKYYAGSVKGRFTISRDNSKNTLYLQMSSLRAEDTAVYYCAADRTGATWDYWGQGTLVTVSS
Kd: 22.1 nM

Kd for H2-PA45 humanized antibody (antibody, V domains shown, not shown: constant region of human IgG1) VH: EVQLVESGGGLVQPGGSLRLSCAASGRTFSRLPMAWFRQAPGKGLEFVAAISWSGGSTYYADSMKGRFTISRDNSKNTAYLQMNSLRAEDTAVYYCAAVGDSAPYSATIVYTDARAYAYWGQGTLVTVSS is 24.1 nM

Kd for H4-PA31 humanized antibody (antibody, human IgG1, V domains shown, not shown: constant region of human IgG1) VH: EVQLVESGGGLVQPGGSLRLSCAVSGRTFSRLPMGWFRQAPGKDREFVAAISWSSSTTYYADSVKGRFTISRDNSKNTAYLQMNSLRAEDTAVYYCAAVGGSLDYSATVVYTAARAYADWGQGTLVTVSS is 5.89 nM

Kd for H2-PC11 humanized antibody (antibody, human IgG1, V domains shown, not shown: constant region of human IgG1) VH: EVQLVESGGGLVQPGGSLRLSCAPSPYSANSFSMAWFRQAPGKGLEGIACIQAESGSTNVAPSVKGRFTISQDNSKNTLYLQMNSLRAEDTAVYYCAAFKRNVGGCELRPEHWRFWGQGTLVTVSS is 2.05 nM

Kd for H3-PC11 humanized antibody (antibody, human IgG1, V domains shown, not shown: constant region of human IgG1) VH: EVQLVESGGGLVQPGGSLRLSCAASPYSANSFSMAWFRQAPGKGREGVACIQAESGSTNVAPSVKGRFTISQDNSKNTLYLQMNSLRAEDTAVYYCAAFKRNVGGCELRPEHWRFWGQGTLVTVSS is 1.14 nM
